Recorded inhibition of aggregation, one value per entry.
- testName: reduction of polyQ htt aggregates in cells – imaging, exon1htt(103Q)mCFP cells, high-content imaging, primary screen (AID 483);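 further: compound exposure lasted 3 days before fixation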
- conditionLabel: exon1htt(103Q)mCFP cell line, aggregate imaging, at 2 µM; active compounds read high

[
  {
    "molecule": "COC(=O)c1cc2oc(C)cc2n1CC(=O)Nc1ccc(C)c(C)c1",
    "inhibition of aggregation / %": 6.1
  },
  {
    "molecule": "CC(=O)N1CCN(c2ccc(S(=O)(=O)N3CCCCC3)cn2)CC1",
    "inhibition of aggregation / %": 4.2
  },
  {
    "molecule": "CCOc1cc(C(=O)Nc2ccon2)cc(OCC)c1OCC",
    "inhibition of aggregation / %": -40.4
  },
  {
    "molecule": "O=C(OCn1nnc2ccccc2c1=O)C1CCN(S(=O)(=O)c2cccs2)CC1",
    "inhibition of aggregation / %": -8.9
  },
  {
    "molecule": "CN(C)CCCNC(=O)c1ccc(CN(c2ccccc2)S(C)(=O)=O)cc1",
    "inhibition of aggregation / %": -1.7
  },
  {
    "molecule": "Cc1ccc2cccc(SCC(=O)N3CCOCC3)c2n1",
    "inhibition of aggregation / %": 28
  },
  {
    "molecule": "Cc1ccc(S(=O)(=O)N2CCN(S(C)(=O)=O)C2c2ccccc2)cc1 (stereo unspecified)",
    "inhibition of aggregation / %": 10.2
  },
  {
    "molecule": "CCCCCC1CC(CC(C)C(=O)Nc2nncs2)C(=O)O1 (stereo unspecified)",
    "inhibition of aggregation / %": -20.6
  },
  {
    "molecule": "Cn1nc(C(=O)N2CCOCC2)c2ccccc2c1=O",
    "inhibition of aggregation / %": 12.2
  },
  {
    "molecule": "CCOC(=O)Cn1nc(-c2ccc(C)cc2)ccc1=O",
    "inhibition of aggregation / %": 31
  },
  {
    "molecule": "COc1cccc(NC(=O)N2CCN(c3cccc(C)c3C)CC2)c1",
    "inhibition of aggregation / %": -12.7
  }
]

====

Listing: NADPH fluorescence slope of selected compounds
- targetOrTestSystem: Voltage-gated potassium channel subunit beta-2 (Rattus norvegicus)
- testName: enhancers of rat Kvbeta2 NADPH turnover – biochemical, NADPH fluorescence, primary screen (AID 623);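 further: fluorescence intensity change per second fitted from 20 to 320 s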
- conditionLabel: Recombinant KvBeta, NADPH fluorescence decrease slope, 10 min; at 10 µM; active compounds read low

[
  {
    "compound": "c1ccc2c(c1)nc(NC1CCCCC1)c1nncn12",
    "NADPH fluorescence slope": "-1.7e-05"
  },
  {
    "compound": "Cc1cc(C)n2nc[n+](C)c2n1",
    "NADPH fluorescence slope": "3.6e-05"
  },
  {
    "compound": "COc1cccc(-c2nc(CS(=O)(=O)CC(=O)NCc3ccc(Cl)cc3)c(C)o2)c1",
    "NADPH fluorescence slope": "1.6e-06"
  },
  {
    "compound": "CCSc1nnc(NC(=O)CSc2nnc(Cc3cccn3C)n2-c2ccc(C)cc2)s1",
    "NADPH fluorescence slope": "1.3e-06"
  },
  {
    "compound": "Cc1ccc2cc(CN(Cc3ccc(F)cc3)Cc3nnnn3C3CCCC3)c(=O)[nH]c2c1",
    "NADPH fluorescence slope": "-4.1e-05"
  },
  {
    "compound": "COc1ccc(N2C(=O)CC(N3CCN(c4ccccc4F)CC3)C2=O)cc1 (stereo not drawn)",
    "NADPH fluorescence slope": "-2.3e-05"
  },
  {
    "compound": "COc1ccc(NC(=O)C(C)Oc2ccc(/C(C)=N\\O)cc2)cc1 (stereo not drawn)",
    "NADPH fluorescence slope": "3.7e-05"
  },
  {
    "compound": "CCOC(=O)C1=C(C)N(C)C(=O)NC1c1cccc(O)c1 (stereo not drawn)",
    "NADPH fluorescence slope": "-1.3e-05"
  },
  {
    "compound": "Cn1c(=O)c(=O)n(C)c2cc(S(=O)(=O)Nc3ccc4c(c3)OCCO4)ccc21",
    "NADPH fluorescence slope": "-5.4e-05"
  },
  {
    "compound": "Cc1occc1-c1nnc(SCC(=O)N2CCc3ccccc32)o1",
    "NADPH fluorescence slope": "2.9e-05"
  },
  {
    "compound": "NC(=O)COC(=O)CNC(=O)c1ccc(Cl)cc1",
    "NADPH fluorescence slope": "-1.3e-05"
  },
  {
    "compound": "Cc1ccc(NC(=O)c2cc(S(=O)(=O)N3CCC4(CC3)OCCO4)ccc2F)cc1",
    "NADPH fluorescence slope": "3.1e-05"
  },
  {
    "compound": "c1ccc(Cn2nnc3c(N4CCCCCC4)ncnc32)cc1",
    "NADPH fluorescence slope": "-2.5e-05"
  },
  {
    "compound": "CCOC(=O)N1CCN(c2cc(=O)n(-c3ccccc3Cl)c(=O)[nH]2)CC1",
    "NADPH fluorescence slope": "-4.3e-05"
  },
  {
    "compound": "CCOc1ccccc1-c1nc(-c2ccc(C)nc2OC)no1",
    "NADPH fluorescence slope": "1.8e-05"
  },
  {
    "compound": "CCOC(=O)CSc1ncnc2c1cnn2-c1ccc(C)cc1",
    "NADPH fluorescence slope": "-2e-05"
  },
  {
    "compound": "Cc1nc2ccc(S(=O)(=O)NCC(=O)N3CCCCC3)cc2s1",
    "NADPH fluorescence slope": "-4.1e-05"
  },
  {
    "compound": "CC1CN(C(=O)CSc2nnc(-c3ccncc3)n2-c2ccccc2)CC(C)O1 (stereo not drawn)",
    "NADPH fluorescence slope": "5.9e-06"
  },
  {
    "compound": "CCOc1cc(C(=O)N2CCN=C2SC)cc(OCC)c1OCC",
    "NADPH fluorescence slope": "4.6e-06"
  },
  {
    "compound": "Cc1ccccc1C(=O)Nc1c(C(=O)N2CCCC2)cnn1-c1ccccc1",
    "NADPH fluorescence slope": "-2.6e-05"
  },
  {
    "compound": "Cc1cc2c(cc1C)C(=O)NC(C)(C)C2",
    "NADPH fluorescence slope": "6.6e-05"
  },
  {
    "compound": "COc1cc(SC)ccc1C(=O)Nc1ccon1",
    "NADPH fluorescence slope": "2.8e-05"
  },
  {
    "compound": "CC(C)Cn1c(N)c(C(=O)COC(=O)c2cc(-c3ccco3)nc3ccccc23)c(=O)n(C)c1=O",
    "NADPH fluorescence slope": "-1.1e-05"
  }
]

====

- targetOrTestSystem: Voltage-gated potassium channel subunit beta-2 (Rattus norvegicus)
- testName: enhancers of rat Kvbeta2 NADPH turnover – biochemical, NADPH fluorescence, primary screen (AID 623);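 further: fluorescence intensity change per second fitted from 20 to 320 s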
- conditionLabel: Recombinant KvBeta, NADPH fluorescence decrease slope, 10 min; at 10 µM; active compounds read low
observationType: NADPH fluorescence slope

[
  {
    "molecule": "CC(=O)c1ccc(NC2OC(C)C(O)C(O)C2O)cc1 (configuration not stated)",
    "observationType": "NADPH fluorescence slope",
    "numericResult": "-8.6e-06"
  },
  {
    "molecule": "C=CCOC(=O)CCC(=O)Nc1cc(OC)nc(OC)n1",
    "observationType": "NADPH fluorescence slope",
    "numericResult": "-4.9e-06"
  },
  {
    "molecule": "Nc1nnn(Cc2ccccc2)n1",
    "observationType": "NADPH fluorescence slope",
    "numericResult": "-2.4e-05"
  },
  {
    "molecule": "Cc1ccccc1NS(=O)(=O)c1cc(S(C)(=O)=O)ccc1Cl",
    "observationType": "NADPH fluorescence slope",
    "numericResult": "2.4e-05"
  },
  {
    "molecule": "CCC1(c2ccc(F)cc2)NC(=O)N(CC(=O)c2ccc[nH]2)C1=O (configuration not stated)",
    "observationType": "NADPH fluorescence slope",
    "numericResult": "-4.1e-05"
  },
  {
    "molecule": "COc1ccc(CCNC(=O)C2CCN(C(=O)N(C)C)CC2)cc1OC",
    "observationType": "NADPH fluorescence slope",
    "numericResult": "-1.9e-05"
  },
  {
    "molecule": "CC(C)CN(C(=O)COC(=O)Cc1n[nH]c(=O)c2ccccc12)C1CCS(=O)(=O)C1 (configuration not stated)",
    "observationType": "NADPH fluorescence slope",
    "numericResult": "-1.4e-05"
  },
  {
    "molecule": "COC(=O)c1sc(N2C(=O)C(O)=C(C(=O)c3ccc(C)o3)C2c2ccc(F)cc2)nc1C (configuration not stated)",
    "observationType": "NADPH fluorescence slope",
    "numericResult": "-5.6e-05"
  },
  {
    "molecule": "Cc1cc(C)cc(N(CC(=O)NC2CCC(C)CC2)S(=O)(=O)c2c(C)noc2C)c1 (configuration not stated)",
    "observationType": "NADPH fluorescence slope",
    "numericResult": "-3e-05"
  },
  {
    "molecule": "COc1ccc(Br)cc1CNC(=O)C1CCCN(S(C)(=O)=O)C1 (configuration not stated)",
    "observationType": "NADPH fluorescence slope",
    "numericResult": "-5.7e-05"
  },
  {
    "molecule": "Cc1csc(NC(=O)c2cccs2)n1",
    "observationType": "NADPH fluorescence slope",
    "numericResult": "-4.8e-05"
  },
  {
    "molecule": "CCOC(=O)N1CCC(N2CC34C=CC(O3)C(C(=O)O)C4C2=O)CC1 (configuration not stated)",
    "observationType": "NADPH fluorescence slope",
    "numericResult": "2.3e-05"
  },
  {
    "molecule": "C=CCNC(=O)CN(c1cccc(Br)c1)S(C)(=O)=O",
    "observationType": "NADPH fluorescence slope",
    "numericResult": "2.5e-05"
  },
  {
    "molecule": "COc1ccc2nc(N3CCC(C)CC3)c(C#N)cc2c1",
    "observationType": "NADPH fluorescence slope",
    "numericResult": "-9e-06"
  },
  {
    "molecule": "Cc1c(NC(=O)C2(c3ccccc3)CCOCC2)c(=O)n(-c2ccccc2)n1C",
    "observationType": "NADPH fluorescence slope",
    "numericResult": "2.3e-05"
  },
  {
    "molecule": "CCOCCCNC(=O)C1CCN(S(=O)(=O)c2c(C)noc2/C=C\\c2ccc(OC)cc2)CC1",
    "observationType": "NADPH fluorescence slope",
    "numericResult": "3.9e-05"
  },
  {
    "molecule": "O=C1CCCC2=C1C1(CCCC1)N=C(Nc1nc3ccccc3s1)N2",
    "observationType": "NADPH fluorescence slope",
    "numericResult": "-9.3e-06"
  },
  {
    "molecule": "CSCCC(NS(=O)(=O)c1ccc2c(c1)oc(=O)n2C)C(=O)NC1CCCCC1 (configuration not stated)",
    "observationType": "NADPH fluorescence slope",
    "numericResult": "-3.7e-05"
  },
  {
    "molecule": "COc1cc2cc(C(c3nnnn3C3CCCC3)N(C)C3CCCCC3)c(=O)[nH]c2cc1OC (configuration not stated)",
    "observationType": "NADPH fluorescence slope",
    "numericResult": "-2e-05"
  },
  {
    "molecule": "CCN1CCN(Cc2nc3c(c(=O)[nH]c(=O)n3C)n2Cc2ccccc2Cl)CC1",
    "observationType": "NADPH fluorescence slope",
    "numericResult": "-3.1e-05"
  },
  {
    "molecule": "O=C(COC(=O)CCC1CCCC1)Nc1ccc(Cl)cn1",
    "observationType": "NADPH fluorescence slope",
    "numericResult": "-5.6e-05"
  },
  {
    "molecule": "COc1ccc(C(=O)CN2C3=NCCCN3c3ccccc32)cc1OC",
    "observationType": "NADPH fluorescence slope",
    "numericResult": "-4.1e-05"
  }
]
